# test_system: Recombinant Human Siglec-3/CD33 protein (His-CD33) (Homo sapiens (Human), UniProt P20138)
# Sequence (P20138 18-259): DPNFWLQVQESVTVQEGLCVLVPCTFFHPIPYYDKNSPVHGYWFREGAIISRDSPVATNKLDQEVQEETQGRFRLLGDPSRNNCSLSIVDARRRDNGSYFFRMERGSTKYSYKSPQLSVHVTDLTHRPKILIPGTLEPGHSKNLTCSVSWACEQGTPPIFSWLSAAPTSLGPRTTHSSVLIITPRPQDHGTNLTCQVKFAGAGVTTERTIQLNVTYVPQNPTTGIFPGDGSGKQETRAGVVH
# protocol_summary: Differential scanning fluorimetry (DSF) thermal shift assay
# Format: binding
# assay_conditions: difference in thermal melt of CD33 protein (0.5 μM) with 50 μM compound
// returns F unless DSF (dTmD) is strictly below 4 °C, in which case T

>>> assigned_category("Cc1cc(C(=O)NC[C@@H](O)[C@@H](O)[C@@H]2O[C@@](C/C=C/c3cccc(CNC(=O)C4CCCC4)c3)(C(=O)O)C[C@H](O)[C@H]2NC(=O)Cn2cc(C3CCCCC3)nn2)cc(C)c1O")
"F"
>>> assigned_category("CC(=O)N[C@H]1[C@H]([C@H](O)[C@H](O)CNC(=O)c2cc(C)c(O)c(C)c2)O[C@@](CC2OC(C)(C)O[C@H]2c2cccc(N3CCCCC3=O)c2)(C(=O)O)C[C@@H]1O (some centres unmarked)")
"T"
>>> assigned_category("CC(=O)N[C@H]1[C@H]([C@H](O)[C@H](O)CNC(=O)c2cc(C)c(O)c(C)c2)O[C@@](CC2OC(C)(C)O[C@H]2c2cccc(NC(=O)c3ccc4cc[nH]c4c3)c2)(C(=O)O)C[C@@H]1O (some centres unmarked)")
"F"
>>> assigned_category("COC(=O)[C@@]1(CCN2CCOC[C@@]23CCN(C(=O)OC(C)(C)C)C3)CCC[C@H](C[C@H](O)CNC(=O)c2cc(C)c3[nH]ccc3c2)O1 [A-206]")
"T"

Q) Identify whether the compound Cc1cc2cc(C)c1OCCO[C@@H]1C[C@H](OC/C=C/CC[C@]3(C(=O)O)C[C@H](O)[C@@H](NC(=O)Cn4cc(C5CCCCC5)nn4)[C@@H](O3)[C@H](O)[C@H](O)CNC2=O)N(C(=O)C2CCCOC2)C1 (some centres unmarked) records DSF (dTmD) below 4 °C.
A) T
